Values compiled from ChEMBL document CHEMBL1961873.

tested on: Epidermal growth factor receptor (Homo sapiens), P00533 [L858R]; conditions: at 1 µM
Sequence (P00533 whole entry L858R): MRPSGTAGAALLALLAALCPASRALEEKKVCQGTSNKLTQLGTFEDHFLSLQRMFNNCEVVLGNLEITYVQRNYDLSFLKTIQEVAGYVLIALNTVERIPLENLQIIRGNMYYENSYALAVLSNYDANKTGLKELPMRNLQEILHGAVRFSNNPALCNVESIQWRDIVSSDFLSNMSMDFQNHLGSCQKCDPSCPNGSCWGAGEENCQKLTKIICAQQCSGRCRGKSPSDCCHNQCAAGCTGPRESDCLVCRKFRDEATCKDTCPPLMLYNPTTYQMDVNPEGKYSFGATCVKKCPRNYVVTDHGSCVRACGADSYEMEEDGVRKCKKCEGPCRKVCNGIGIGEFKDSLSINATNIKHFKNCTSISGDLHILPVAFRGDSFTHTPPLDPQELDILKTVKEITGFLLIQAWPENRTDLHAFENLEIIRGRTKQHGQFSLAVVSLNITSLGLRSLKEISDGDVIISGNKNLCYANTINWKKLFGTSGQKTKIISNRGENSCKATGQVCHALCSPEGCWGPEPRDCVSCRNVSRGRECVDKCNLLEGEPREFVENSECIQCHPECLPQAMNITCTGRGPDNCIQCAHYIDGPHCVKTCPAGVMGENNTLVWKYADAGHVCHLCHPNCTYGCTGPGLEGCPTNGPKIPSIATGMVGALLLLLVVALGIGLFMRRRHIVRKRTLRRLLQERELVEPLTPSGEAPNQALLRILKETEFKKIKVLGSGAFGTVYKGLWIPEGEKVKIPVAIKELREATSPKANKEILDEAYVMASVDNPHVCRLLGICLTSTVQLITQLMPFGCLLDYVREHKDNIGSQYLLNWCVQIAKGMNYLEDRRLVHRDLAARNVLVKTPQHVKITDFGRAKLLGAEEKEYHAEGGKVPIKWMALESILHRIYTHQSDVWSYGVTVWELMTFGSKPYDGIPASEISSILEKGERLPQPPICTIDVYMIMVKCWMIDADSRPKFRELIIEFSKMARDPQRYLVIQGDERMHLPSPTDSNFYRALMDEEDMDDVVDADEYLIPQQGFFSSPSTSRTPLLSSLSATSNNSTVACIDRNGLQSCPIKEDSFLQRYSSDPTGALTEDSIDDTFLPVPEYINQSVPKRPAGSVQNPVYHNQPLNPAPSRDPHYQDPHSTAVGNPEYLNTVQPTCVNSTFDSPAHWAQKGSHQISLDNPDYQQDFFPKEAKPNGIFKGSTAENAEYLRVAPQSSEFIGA
In this section, each of the compounds is paired with its reported inhibition.
The response must be a number in % with no trailing unit.

COC(=O)Nc1nc2ccc(Oc3ccc(NC(=O)Nc4cccc(Cl)c4)cc3)cc2[nH]1
2.43

Kindly note the recorded inhibition for `CCn1c(-c2nonc2N)nc2cnc(Oc3cccc(NC(=O)c4ccc(N(C)C)cc4)c3)cc21` , which is 1.2

Kindly note the recorded inhibition for `[O-][S+]1CCN(Cc2ccc(-c3ccc4ncnc(Nc5ccc(OCc6cccc(F)c6)c(Cl)c5)c4c3)o2)CC1` , which is 99.1

Kindly note the recorded inhibition for `COC(=O)Nc1nc2ccc(S(=O)(=O)c3ccc(NC(=O)Nc4cc(C(F)(F)F)ccc4F)cc3)cc2[nH]1` , which is 1.58

###

In this section, each of the molecules is paired with its reported inhibition.
molecular target: CDK3/Cyclin E (Homo sapiens) (UniProt P24864+Q00526); conditions: at 0.1 µM;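 note: reported percentages are mean inhibition values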
Sequence (P24864 whole entry, looked up): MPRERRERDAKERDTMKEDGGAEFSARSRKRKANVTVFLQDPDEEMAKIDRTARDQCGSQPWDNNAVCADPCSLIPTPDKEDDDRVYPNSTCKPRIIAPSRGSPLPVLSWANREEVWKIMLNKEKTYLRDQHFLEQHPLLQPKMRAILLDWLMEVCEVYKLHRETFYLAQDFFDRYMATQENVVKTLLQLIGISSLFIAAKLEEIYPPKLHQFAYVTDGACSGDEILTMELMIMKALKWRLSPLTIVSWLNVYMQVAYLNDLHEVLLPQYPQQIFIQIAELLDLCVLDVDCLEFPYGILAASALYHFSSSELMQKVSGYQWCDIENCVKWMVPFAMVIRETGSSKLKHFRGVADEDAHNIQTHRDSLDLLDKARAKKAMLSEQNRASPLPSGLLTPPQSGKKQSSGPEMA
Sequence (Q00526 whole entry, looked up): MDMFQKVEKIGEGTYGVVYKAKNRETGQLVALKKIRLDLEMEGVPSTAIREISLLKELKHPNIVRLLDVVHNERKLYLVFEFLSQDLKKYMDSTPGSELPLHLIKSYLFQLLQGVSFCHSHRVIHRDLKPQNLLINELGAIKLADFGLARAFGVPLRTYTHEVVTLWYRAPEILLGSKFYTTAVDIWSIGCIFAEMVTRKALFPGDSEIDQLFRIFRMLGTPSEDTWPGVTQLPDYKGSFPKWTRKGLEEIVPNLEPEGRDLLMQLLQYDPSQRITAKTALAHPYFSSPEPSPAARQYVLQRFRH
The response must be a number in % with no trailing unit.

COc1ccc(-c2cc3c(N)ncnc3o2)cc1
0.47
O=C(O[C@H]1CN[C@H](C#Cc2cc3ncnc(Nc4ccc(Cc5ccccc5)cc4)c3s2)C1)N1CCOCC1
-2.04
COc1cc2ncn(-c3cc(OCc4ccccc4C(F)(F)F)c(C(=O)N(C)C)s3)c2cc1OC
1.54
CS(=O)(=O)CCNCc1ccc(-c2ccc3ncnc(Nc4ccc(OCc5ccccc5)c(C(F)(F)F)c4)c3c2)o1
0.51
COc1ccc2[nH]c3c4[nH]c5ccc(OC)cc5c4c4c(c3c2c1)C(=O)NC4=O
2.31

Kindly note the recorded inhibition for `Fc1ccc(-c2nn3ccccc3c2-c2ccncc2)cc1` , which is 0.78

Kindly note the recorded inhibition for `COc1ccc2c(-c3ccnc(Nc4cccc(OC(F)(F)F)c4)n3)cnn2n1` , which is 3.19

Kindly note the recorded inhibition for `[O-][S+]1CCN(Cc2ccc(-c3ccc4ncnc(Nc5ccc(OCc6cccc(F)c6)c(Cl)c5)c4c3)o2)CC1` , which is 0.55

Kindly note the recorded inhibition for `CC(C)(CO)CNC(=O)c1ccc2c(c1)/C(=N/Nc1ccc(S(N)(=O)=O)cc1)C(=O)N2` , which is 48.5

Kindly note the recorded inhibition for `O=C(Nc1n[nH]c2cc(-c3ccc(F)cc3)ccc12)C1CC1` , which is 2.18

Kindly note the recorded inhibition for `Cc1ccc2c(-c3ccnc(Nc4ccccc4)n3)c(-c3ccc(F)cc3)nn2n1` , which is 2.45

Kindly note the recorded inhibition for `CCn1c(-c2nonc2N)nc2c(C#CC(C)(C)O)nc(OC[C@H](N)c3ccccc3)cc21` , which is -2.75

Kindly note the recorded inhibition for `COc1ccc(CNC(=O)c2ccc(-c3cc(-c4nnc(C)o4)ccc3C)cc2)cc1` , which is 3.23

###

In this section, each of the compounds is paired with its reported inhibition.
biological target: Death-associated protein kinase 1 (Homo sapiens); conditions: at 1 µM;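 note: each value is a mean inhibition figure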
The response must be a number in % with no trailing unit.

Examples from the recorded data:
CNC(=O)c1cc(-c2ccc(F)cc2)cc(-c2ccc(S(=O)(=O)N3CCCC3)cc2)c1N
9.63
CS(=O)(=O)CCNCc1ccc(-c2ccc3ncnc(Nc4ccc(OCc5ccccc5)c(C(F)(F)F)c4)c3c2)o1
10.9

Entry `Cc1cccc2c1NC(=O)/C2=N\Nc1ccc(S(N)(=O)=O)cc1` , Death-associated protein kinase 1 (Homo sapiens) data, inhibition value: 4.75

Entry `COC(=O)Nc1nc2ccc(S(=O)(=O)c3ccc(NC(=O)Nc4cc(C(F)(F)F)ccc4F)cc3)cc2[nH]1` , Death-associated protein kinase 1 (Homo sapiens) data, inhibition value: 5.43
